assay: protein stability index of a GFP-peptide fusion (GPS, HEK-293T) (PSI 1-6); higher = more stable; settings: treatment: DMSO; c terminus: a fixed tail appended;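 further: 24-mer peptide tiles fused after GFP, lentivirally expressed, FACS-sorted into six equal bins by GFP/DsRed ratio, decoded by Illumina sequencing, PSI is the read-weighted mean bin number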
Label True when protein stability index >= 4; otherwise False.

Evaluate CHSESGKSRLVQLPPVAVRSLQDL [PCMTD2] : protein stability index at minimum 4?
False

Evaluate GFWRIDPQYAERLLSGAFKKRRLP [FOXJ1] : protein stability index at minimum 4?
False

Evaluate GRNDLQQWIEVDARRLTRFTGVIT [CPXM2] : protein stability index at minimum 4?
False

Evaluate LLIANKRQSYDISIVAQVDQTGSK [CARM1] : protein stability index at minimum 4?
False

Evaluate EGLNSSLCSPGHERRGTPADTEEP [PSD2] : protein stability index at minimum 4?
True

Evaluate LDDRKNEEDGGADEHEHPLTSELD [MIA2] : protein stability index at minimum 4?
True

Evaluate QLVNSSADNMLEYKSWLKNLAKEQ [PPEF2] : protein stability index at minimum 4?
False

Evaluate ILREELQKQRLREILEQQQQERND [ZNF277] : protein stability index at minimum 4?
True

Evaluate HRWPSNMYLKQLAEYRKYIHSRKC [RHOBTB3] : protein stability index at minimum 4?
False

Evaluate CQRERAFSVKFEVQAPRWGNPRAL [OAS1] : protein stability index at minimum 4?
False

Evaluate GERPRSEEDNELNLPNLAAAYSSI [GCH1] : protein stability index at minimum 4?
True

Evaluate HRLKLRLAIQEMVSLTSPSAPPTS [PPFIA4] : protein stability index at minimum 4?
False

Evaluate EMEEGVKESLCAKEEKCQGKGDDS [KCNA4] : protein stability index at minimum 4?
True

Evaluate KIYAYPSNITSETGFRTISSLEEI [TMEM192] : protein stability index at minimum 4?
False

Evaluate NLQDTLEAASFLQILPVLDFCKVF [KLHL13] : protein stability index at minimum 4?
False

Evaluate EFFLEQTKKKGVKRPARLHTKPSQ [NOP53] : protein stability index at minimum 4?
False

Evaluate KHLNASNPTEPATIIFTAAREGRE [TOR1AIP2] : protein stability index at minimum 4?
True

Evaluate SVLDDLLYAVGGHDGSSYLNSVER [KLHL20] : protein stability index at minimum 4?
False

Evaluate EDDSMSVIEPVVENSGILQGKLIK [EFHC1] : protein stability index at minimum 4?
True

Evaluate NSVSSHASSPYISSVQSYPGSASL [DLX1] : protein stability index at minimum 4?
False

Evaluate ISVTAYQNPQITQLKIAANPFAKG [TBX6] : protein stability index at minimum 4?
False

Evaluate EIFRQRFRQFGYQDSPGPREAVSQ [ZNF24] : protein stability index at minimum 4?
False

Evaluate GDTKRATPIEVLCENFPEMATYLR [CSNK1G3] : protein stability index at minimum 4?
False

Evaluate RHCPELAEMSRVSIRILDELVLPF [HNF4A] : protein stability index at minimum 4?
False
